experiment: small-molecule microarray binders of probe aCHRDL2, primary screen, biochemical, biotinylated probe, 635/667 nm fluorescence (AID 1100); conditions: higher = more signal

COMPOUND	composite z-score
O=C1C2C=CC(C(O)c3ccccc3)N(n3cnnc3)C2C(=O)N1Cc1ccccc1 (stereo unspecified)	0.908
COCC(=C=CC[C@H](O)c1ccc(OCCO)cc1)C[C@H](O)c1ccccn1	-0.201
CCN1C(C)=C(C(=O)OC)[C@@H](c2ccccc2)N2C(=O)[C@@]3(C(=O)OC)O[C@@]12[C@@H]1C(=O)CCC[C@@H]13	-1.31
COCCCNC(=O)[C@@H]1c2ccccc2C(=O)N(CC23CC4CC(CC(C4)C2)C3)[C@H]1c1ccc(CO)cc1	0.97
C=CC[C@]1(C(=O)O)N=C(c2ccc(OCCCO)cc2)O[C@H]1c1ccccc1N=[N+]=[N-]	1.05
COC(=O)C[C@H]1O[C@]2(C(=O)N(C)c3ccccc32)[C@@H](C)[C@@H]1[Si](C)(C)c1ccc(OC)cc1	-0.514
C=C(CCCC)C(=O)CC[C@@H](OC(C)=O)c1ccccc1OCCO	-0.16
CCCCO[C@H]1C[C@H]2C(Br)=C[C@@]1(CO)C(=O)[C@]21CO1	-1.04
O=C1OCCC/C=C\[C@H]2OC34C=CCN(CCN5CCOCC5)C(=O)[C@H]3N(CCCCCO)C(=O)[C@@H]4C12 (stereo partly specified)	-0.0252
CC(=O)Nc1ccc([C@H]2[C@H](C)CC[C@H]3C(=O)N4[C@@H](CC[C@@H](C)[C@@H]4c4ccc(NC(C)=O)cc4)C(=O)N32)cc1	-0.286
C=C(C(=O)CC[C@H](OC(=O)c1ccccc1-c1ccccc1C(=O)O)c1ccc(CO)o1)C(C)C	-0.558
CCCC=C(CCC)[C@@H](NC(=O)c1ccccc1)c1ccccc1	1.07
CCC(=O)[C@]12O[C@@]3([C@@H]4C(=O)OCC[C@@H]41)N(CC)C(C)=C(C(=O)OC)[C@@H](c1ccccc1)N3C2=O	-0.87
Cc1cc(C)c(C(O)C2C=CC3C(=O)N(C)C(=O)C3N2N2CCCCC2)c(C)c1 (stereo unspecified)	1.2
COC(=O)Cn1c(C(=O)N2CCCC2)cc2c1C[C@H]1CN(C(=O)c3ccccc3)[C@@](Cc3ccc(OC)cc3)(C(=O)OC)[C@@H]21	1.1
O=C(CS)NCCCCCNC(=O)[C@H]1C[C@H]2C(=O)N[C@@H](Cc3ccccc3)C(=O)N2[C@H]1c1ccc(O)cc1	0.299
COCCOC(=O)N1C(=O)[C@@]2(c3cc(C#CCNC(N)=O)ccc31)[C@H](c1ccc(OCCO)cc1)N1[C@H](c3ccccc3)[C@H](c3ccccc3)OC(=O)[C@H]1[C@@H]2C(=O)N1CCCCCCC1	1.11
C[C@H]1COC(=O)[C@H](Cc2ccccc2)NC(=O)[C@@H](C)COC(=O)[C@H](Cc2ccccc2)NC1=O	-0.563
CO[C@@H]1COC(=O)[C@H](COCc2ccccc2)NC(=O)CC=C[C@@H](C)[C@H](OC)COC(=O)[C@H](COCc2ccccc2)NC(=O)CC=C[C@H]1C	-0.942
O=C1C2C=CC(C(O)C#Cc3ccccc3)N(Nc3ccccc3)C2C(=O)N1c1ccccc1 (stereo unspecified)	0.498
CCCC[C@H]1OB(O)C[C@H]2C1=C(COC)C[C@H]1C(=O)N(Cc3ccccc3)C(=O)[C@H]12	-0.0346
